# credit: patent US9353090B2

biological target: human soluble guanylate cyclase alpha 1 and beta 1 subunits (sGC) (Homo sapiens (Human), UniProt Q02108+Q02153); experiment: sGC cellular activator assay (cGMP, HTRF), in the presence and absence of 50% human serum; type: cell-based; conditions: CHO cells stably expressing human sGC alpha 1/beta 1, preincubated with 40 microM ODQ; cGMP by HTRF; Table 2 does not state whether with or without 50% human serum
Sequence (Q02108 whole entry partner): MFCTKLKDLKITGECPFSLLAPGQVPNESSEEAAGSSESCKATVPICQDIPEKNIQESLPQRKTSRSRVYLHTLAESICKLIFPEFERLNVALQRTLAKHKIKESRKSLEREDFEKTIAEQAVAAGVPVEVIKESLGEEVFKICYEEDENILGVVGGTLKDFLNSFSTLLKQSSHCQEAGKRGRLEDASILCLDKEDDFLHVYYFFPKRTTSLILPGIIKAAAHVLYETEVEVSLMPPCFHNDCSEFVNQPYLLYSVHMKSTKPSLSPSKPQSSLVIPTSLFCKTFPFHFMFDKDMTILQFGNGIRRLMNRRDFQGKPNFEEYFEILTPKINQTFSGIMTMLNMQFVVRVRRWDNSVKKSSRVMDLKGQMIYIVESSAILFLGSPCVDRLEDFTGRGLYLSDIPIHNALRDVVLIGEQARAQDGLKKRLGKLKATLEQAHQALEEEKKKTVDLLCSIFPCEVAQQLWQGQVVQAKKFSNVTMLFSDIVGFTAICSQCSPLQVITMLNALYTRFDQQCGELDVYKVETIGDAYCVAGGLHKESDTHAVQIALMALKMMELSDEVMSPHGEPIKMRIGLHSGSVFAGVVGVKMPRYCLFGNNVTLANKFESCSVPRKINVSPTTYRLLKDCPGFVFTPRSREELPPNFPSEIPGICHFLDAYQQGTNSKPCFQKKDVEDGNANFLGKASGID
Sequence (Q02153 whole entry): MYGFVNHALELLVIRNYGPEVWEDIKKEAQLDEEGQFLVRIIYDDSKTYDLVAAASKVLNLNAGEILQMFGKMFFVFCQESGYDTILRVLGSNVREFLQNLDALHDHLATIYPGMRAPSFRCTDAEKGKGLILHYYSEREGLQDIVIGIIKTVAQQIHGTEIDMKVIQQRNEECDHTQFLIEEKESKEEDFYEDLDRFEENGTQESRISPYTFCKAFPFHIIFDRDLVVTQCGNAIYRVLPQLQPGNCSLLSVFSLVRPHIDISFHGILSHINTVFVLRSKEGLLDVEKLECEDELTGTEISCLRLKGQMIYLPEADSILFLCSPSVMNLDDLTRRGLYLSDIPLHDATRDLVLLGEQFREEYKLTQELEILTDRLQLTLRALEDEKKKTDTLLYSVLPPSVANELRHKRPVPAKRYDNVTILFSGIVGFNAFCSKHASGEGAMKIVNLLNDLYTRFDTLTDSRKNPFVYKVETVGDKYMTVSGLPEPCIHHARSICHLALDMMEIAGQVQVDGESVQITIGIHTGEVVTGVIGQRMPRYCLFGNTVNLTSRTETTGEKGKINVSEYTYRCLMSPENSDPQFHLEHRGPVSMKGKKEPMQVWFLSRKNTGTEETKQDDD
pEC50: −log10 of the molar value.
Parameter: pEC50

A selection of reference data follows.
| Compound | pEC50 |
| --- | --- |
| CO[C@@H]1CN(c2nc(-c3cccc(C)c3OCc3cc(C)c4c(c3)CCN(CC3COCCO3)C4)cs2)CC[C@@H]1C(=O)O (stereo partly shown) [Compound 175] | 6.81 |
| CO[C@H]1CN(c2nc(-c3cc(C)ccc3OCc3ccc4c(c3C)CCN(C3CCOCC3)CC4)cs2)CC[C@H]1C(=O)O | 7.59 |
| COC[C@H]1N(c2cccc(-c3cccc(C)c3OCc3cc(C)c4c(c3F)CCN(C3CCOCC3)C4)n2)C[C@@H]2C[C@@]21C(=O)O | 8.10 |
| COc1cc(COc2c(C)cccc2-c2csc(N3CC[C@@H](C(=O)O)[C@@H](OC)C3)n2)cc2c1CN(C1CCOCC1)CC2 | 8.00 |
| COc1cc(COc2c(C)cccc2-c2cccc(N3C[C@@H]4C[C@]4(C(=O)O)C3)n2)cc2c1CN(C1CCOCC1)CC2 | 7.80 |
| Cc1c(COc2ccccc2-c2cccc(N3CC[C@@]4(C(=O)O)C[C@H]4C3)n2)ccc2c1CCN([C@H]1CCOC1)C2 | 7.96 |
| CO[C@@H]1CN(c2cccc(-c3cccc(C)c3OCc3ccc4c(c3)C(C)(C)CN(C3CCOCC3)CC4)n2)CC[C@@H]1C(=O)O | 8.70 |
| COC[C@H]1N(c2cccc(-c3cccc(C)c3OCc3cc(C)c4c(c3)OCCN(C3CCOCC3)C4)n2)C[C@@H]2C[C@@]21C(=O)O | 6.28 |

[P] CO[C@H]1CN(c2nc(-c3cccc(Cl)c3OCc3ccc4c(c3)[C@H](C)CN(C3CCOCC3)CC4)cs2)CC[C@H]1C(=O)O
[Q] Cc1ccc(OCc2cc(C)c3c(c2C)CCN(C2CCOCC2)C3)c(-c2cccc(N3C[C@@H]4C[C@]4(C(=O)O)C3)n2)c1
**Q:** Name the one with the greater pEC50 value, either P or Q as given. In your reply, give the label of the chosen option.
**A:** P
(P: 8.40, Q: 7.30)

[1] COC[C@H]1N(c2cccc(-c3cccc(C)c3OCc3cc(F)c4c(c3)CCN(C3CCOCC3)CC4)n2)C[C@@H]2C[C@@]21C(=O)O
[2] CO[C@@H]1CN(c2cccc(-c3cc(C)ccc3OCc3ccc4c(c3C)CCN(C3CCOCC3)CC4)n2)CC[C@@H]1C(=O)O
**Q:** Return label of the item with the larger pEC50. Candidates: 1 , 2 . Respond using the label that marks the chosen record.
**A:** 1
(1: 8.52, 2: 7.52)

----------
assay: physchem; conditions: pH 4.5, aqueous buffer, kinetic from dmso stock, Solubility (pH 4.5)
Parameter: solubility at 24 h (µg/mL)

Worked cases, answers included:
| Compound | Value units | solubility at 24 h |
| --- | --- | --- |
| Cc1cc(COc2c(C)cccc2-c2csc(N3CC[C@@]4(C(=O)O)C[C@H]4C3)n2)cc2c1CN(C1CCOC1)CC2 (stereo partly shown) | µg/mL | 66 |
| COC[C@H]1N(c2cccc(-c3cccc(C)c3OCc3cc4c(c(OC)c3)CN(C3COC3)CC4)n2)C[C@@H]2C[C@@]21C(=O)O | µg/mL | 90 |
| CCc1cc(COc2c(C)cccc2-c2csc(N3CC[C@@H](C(=O)O)[C@@H](OC)C3)n2)cc2c1CN(C1CCOCC1)CC2 | µg/mL | 90 |
| Cc1ccc(OCc2cc(C)c3c(c2)CCN(C2COC2)C3)c(-c2cccc(N3C[C@@H]4C[C@]4(C(=O)O)C3)n2)c1 | µg/mL | 85 |
| CCOC[C@@H]1N(c2cccc(-c3cccc(C)c3OCc3cc(C)c4c(c3)CCN(C3CCOCC3)C4)n2)C[C@@H]2C[C@@]21C(=O)O | µg/mL | 149 |

[A] CO[C@@H]1CN(c2cccc(-c3cccc(C)c3OCc3cc(C)c4c(c3)CCN(C3CCOCC3)CC4)n2)CC[C@@H]1C(=O)O
[B] COC[C@H]1N(c2cccc(-c3cccc(C)c3OCc3ccc4c(c3C)CN(C3CCOCC3)C4)n2)C[C@@H]2C[C@@]21C(=O)O
[C] Cc1ccc(OCc2ccc3c(c2)CCN(CC2COCCO2)C3)c(-c2csc(N3CC[C@@]4(C(=O)O)C[C@H]4C3)n2)c1 (stereo partly shown)
[D] Cc1ccc(OCc2ccc3c(c2C)CCN(C2CCOC2)CC3)c(-c2csc(N3CC[C@@]4(C(=O)O)C[C@H]4C3)n2)c1 (stereo partly shown)
**Q:** List these items ordered by solubility at 24 h, big to small. Record the ranking as a list of labels in the requested order.
**A:** B, A, C, D
